system: SF-295 CNS; test: NCI tumour cell line growth inhibition, 48 h
Measured log10 TGI by item
MEASURED ENDPOINT: log10 TGI (log10 of the value in µM)

molecular_string=Fc1ccc([C@@H]2CCNC[C@H]2COc2ccc3c(c2)OCO3)cc1 quantitative_result=1.23
molecular_string=C[C@]12CC[C@H](O)CC1=CC[C@@H]1[C@@H]2CC[C@]2(C)C(=O)/C(=C/c3ccc([N+](=O)[O-])cc3)C[C@@H]12 quantitative_result=1.31
molecular_string=O=C(/C=C/c1ccccc1)Oc1cccc(Br)c1 quantitative_result=1.83
molecular_string=Oc1ccc(Oc2cnc3cc(Cl)ccc3n2)cc1 quantitative_result=1.87
molecular_string=Cc1ccc(-c2cc(-c3ccc(C)cc3)nc(N3CCN(CCNc4ccnc5cc(Cl)ccc45)CC3)n2)cc1 quantitative_result=1.19
molecular_string=O=C(NO)c1ccc(Cn2c(=O)n(-c3ccccc3)c(=O)c3ccccc32)cc1 quantitative_result=0.47
molecular_string=Clc1ccc2nc(Cl)c3ccccc3c2c1 quantitative_result=1.55
molecular_string=O=C1c2cccnc2-c2nccc3c2c1nc1ccc(Br)cc13 quantitative_result=-0.94

###

system: A498 renal; test: NCI tumour cell line growth inhibition, 48 h
MEASURED ENDPOINT: GI50

molecular_string=COc1ccc(/C=N\NC(=O)c2ccc3nc(-c4ccc(Cl)cc4)[nH]c3c2)cc1 result="2.45 µM"
molecular_string=COc1ccc2c(c1)C(=O)c1c-2c(N2CCN(C(=O)CNCCN(C)C)CC2)nc2ccccc12 result="2.14 µM"
molecular_string=OCCn1cc(-c2cnc3nnn(Cc4ccc5ncccc5c4)c3n2)cn1 result="34.3 µM"
molecular_string=Nc1nc(-c2ccc(Cl)cc2)cc(-c2ccc(Cl)cc2)c1-c1nc2ccccc2o1 result="19.6 µM"

###

Quick reference for TGI among some compounds
tested on: MDA-MB-435; assay: NCI tumour cell line growth inhibition, 48 h
MEASURED ENDPOINT: TGI

compound="CCOC1NC(/N=C/c2ccc(OC)cc2)=C(C#N)C1C#N (stereo unspecified)" result="> 100 µM"
compound=CN1CCN(c2ccc3nc(-c4[nH]ncc4Nc4ncnc5c4OCCCN5)[nH]c3c2)CC1 result="0.081 µM"
compound="CS(=O)(=O)OCC1CCCCCCCCCCC12SCCCS2 (stereo unspecified)" result="> 100 µM"
compound=O=C1C=C(O)c2c(O)ccc(O)c2C1=O result="> 100 µM"
compound=Cn1c(COC(=O)NC2CCCCC2)c(COC(=O)NC2CCCCC2)c2ccc3cc(C=O)ccc3c21 result="> 100 µM"
compound=NC(=O)c1sc(-n2cnc3ccc(C(F)(F)F)cc32)cc1OCc1ccccc1Br result="1.78 µM"
compound=C=CCOCn1ccc(N)nc1=O result="> 100 µM"
compound="CCOC(=O)c1ccccc1SC(C[N+](=O)[O-])c1ccccc1 (stereo unspecified)" result="11.4 µM"
compound="O=C1O[C@H]2C3C4CCC(C4[C@@H]2I)[C@H]13 (stereo partly specified)" result="> 100 µM"
compound=CCOc1cc2c(=O)oc3c(OC)ccc4ccc(c1OC)c2c43 result="> 100 µM"
compound=COc1cc2cnc(-c3ccccc3)cc2cc1OC result="67.3 µM"

###

system: NCI-H226 lung; assay: NCI tumour cell line growth inhibition, 48 h
Consider the following compounds and their measured TGI readings.
MEASURED ENDPOINT: TGI

compound=O=C(NNS(=O)(=O)c1ccccc1)c1csc(NC(=S)NC2CCCCC2)n1 result="> 100 µM"
compound=O=C(CSCC(=O)N/N=C\c1ccccc1F)N/N=C\c1ccccc1F result="> 100 µM"
compound="O=NN1C(c2ccccc2)CCCC1c1ccccc1 (configuration not stated)" result="> 100 µM"
compound=O=C(Cn1c(C(=O)c2ccc(Cl)cc2)nc(-c2ccccc2)c1-c1ccccc1)c1ccc(Cl)cc1 result="> 100 µM"
compound=Nc1nccc2c1ccn2-c1cccc(NC(=O)c2ccc(N3CCOCC3)c(C(F)(F)F)c2)c1 result="18.1 µM"
compound=O=C(Oc1ccccc1Cl)c1ccccc1Nc1cccc(C(F)(F)F)c1 result="47.9 µM"
compound=O=C1NC(=O)[C@@H](c2c[nH]c3ccccc23)[C@@H]1c1c[nH]c2ccccc12 result="> 25 µM"
compound=O=C1/C(=C/c2ccc(Cl)c(Cl)c2)CNC/C1=C\c1ccc(Cl)c(Cl)c1 result="39.9 µM"
compound=CC1=NN(C(=O)Cc2ccccc2)C(=O)/C1=C\c1ccccc1O result="> 100 µM"
compound="COc1cc(C2c3cc(OC)c(OC)c(O)c3C(=O)C3CCC(=O)N32)cc(OC)c1OC (configuration not stated)" result="> 100 µM"
compound=Clc1ccc2nc(Cl)c3ccccc3c2c1 result="> 100 µM"
compound="CCOC(=O)c1ccccc1SC(C[N+](=O)[O-])c1ccccc1 (configuration not stated)" result="44.5 µM"
compound="OCC1OC(c2ccccc2)CC1O (configuration not stated)" result="> 100 µM"
compound="CS(=O)(=O)OCC1CCCCCCCCCCC12SCCCS2 (configuration not stated)" result="> 100 µM"
compound=COc1ccc(-c2nnc(SCC(=O)Nc3ccc(C(=O)/C=C/c4cc(OC)c(OC)c(OC)c4)cc3)n2-c2ccccc2)cc1OC result="8.06 µM"
compound="CCOC(=O)C(NC(=O)CC)(Nc1ccc(S(=O)(=O)Nc2ccc(OC)nn2)cc1)C(F)(F)F (configuration not stated)" result="> 100 µM"
compound=O=c1c2cc(I)ccc2nc(SCc2nnco2)n1Cc1ccccc1 result="> 100 µM"
compound="COC1C(CO)OC(n2c3c(Cl)cccc3c3c4c(c5c6cccc(Cl)c6[nH]c5c32)C(=O)NC4=O)C(O)C1O (configuration not stated)" result="0.666 µM"
compound="CN(C)C=NCC(O)c1ccccc1 (configuration not stated)" result="> 100 µM"
compound="CC1C(C#N)(C#N)C(C#N)=C(N)C1(C)[N+](=O)[O-] (configuration not stated)" result="> 100 µM"
compound=CC(=O)c1[nH]c(Nc2ccc(C)cc2)c(C(=S)Nc2ccccc2)c1N result="32.4 µM"
compound="COc1cc(S(=O)(=O)Nc2ccc(-c3csc(N4C(=O)C(C)SC4c4ccccc4)n3)cc2)ccc1Cl (configuration not stated)" result="> 100 µM"

###

system: PC-3 prostate; assay: NCI tumour cell line growth inhibition, 48 h; in the data active = GI50 below about 0.43 µM; inactive = the rest
Labels: YES for active, NO for inactive

molecule=O=C(c1ccco1)c1nc2cc(C(F)(F)F)ccc2[n+]([O-])c1C(F)(F)F assigned_category=NO
molecule=CCCCCCCCCCC[C@@H](C[C@H]1OC(=O)[C@H]1CCCCCC)OC(=O)[C@@H](CC(C)C)NC=O assigned_category=NO
molecule="CCCCCCCCNC(C)C(O)c1ccc(SC(C)C)cc1 (centres undefined)" assigned_category=NO
molecule=O=C(NO)c1ccc(Cn2c(=O)n(-c3ccccc3)c(=O)c3ccccc32)cc1 assigned_category=NO
molecule=C=C(C)[C@@H]1CC[C@]2(C(=O)O)CC[C@]3(C)[C@H](CC[C@@H]4[C@@]5(C)C/C(=C/c6cccc(I)c6)C(=O)C(C)(C)[C@@H]5CC[C@]43C)[C@@H]12 assigned_category=NO
molecule=CN1CCN(c2ccc3nc(-c4[nH]ncc4Nc4ncnc5c4OCCCN5)[nH]c3c2)CC1 assigned_category=YES
molecule=COc1cc(C(=O)O/N=C(\N)Cc2cccc3ccccc23)cc(OC)c1OC assigned_category=NO
molecule=CC(=O)Nc1ccc(-c2csc(Nc3cccc(-c4csc(-c5ccccc5)n4)c3)n2)cc1 assigned_category=NO
molecule=Cc1cc(NCc2cc(Nc3ccnc4cc(Cl)ccc34)ccc2F)nc(N2CCSCC2)n1 assigned_category=NO

###

tested on: UO-31 renal; assay: NCI tumour cell line growth inhibition, 48 h; in the data active = GI50 below about 0.43 µM; inactive = the rest
Outcome codes: 1 for active, 0 for inactive

molecule="CC(C)=CC(=O)N[C@@H]1CC2CCC3C(CC[C@@]4(C)C3CC[C@@H]4C(C)N(C)C)[C@@]2(C)C[C@@H]1O (some centres undefined)" assigned_category=0
molecule=O=C(Cn1c(C(=O)c2ccc(Cl)cc2)nc(-c2ccccc2)c1-c1ccccc1)c1ccc(Cl)cc1 assigned_category=0
molecule=CC[C@H](C)[C@H](NC(=O)NC(C)(C)C)C(=O)N(C)[C@H](C[C@@H](OC(C)=O)c1nc(C(=O)N[C@@H](Cc2ccccc2)C[C@H](C)C(=O)OC)cs1)C(C)C assigned_category=0
molecule=COc1ccc2c(c1)[nH]c(=O)c1c3cc(OC)c(OC)cc3cn21 assigned_category=1

###

test system: T-47D breast; assay: NCI tumour cell line growth inhibition, 48 h; in the data active means GI50 below about 0.43 µM; inactive means the rest
Possible outcomes: Y for active, N for inactive

compound=CC(=O)Nc1ccc(-c2csc(Nc3cccc(-c4csc(-c5ccccc5)n4)c3)n2)cc1 subject_of_test="T-47D breast" assigned_category=N
compound=Cc1ccc2nc3c(n2c1)C(=O)C(=O)c1ccccc1-3 subject_of_test="T-47D breast" assigned_category=Y
compound=O=C(c1nn(-c2ccc(Cl)cc2)cc1O)n1nc(C(F)(F)F)cc1-c1ccccc1 subject_of_test="T-47D breast" assigned_category=N
compound=O=C(Oc1ccccc1Cl)c1ccccc1Nc1cccc(C(F)(F)F)c1 subject_of_test="T-47D breast" assigned_category=N
compound=CCOC(=O)Cn1c(-c2nonc2NC(=O)c2ccccc2F)nc2ccccc21 subject_of_test="T-47D breast" assigned_category=N
compound="CCOC(=O)c1ccccc1SC(C[N+](=O)[O-])c1ccccc1 (centres undefined)" subject_of_test="T-47D breast" assigned_category=N
compound=COc1cnc2c(c1)C(=O)c1c-2n(CCCNCCN2CCOCC2)c(=O)c2cc([N+](=O)[O-])ccc12 subject_of_test="T-47D breast" assigned_category=Y
compound=COc1ccc(-c2nnc(SCC(=O)Nc3ccc(C(=O)/C=C/c4cc(OC)c(OC)c(OC)c4)cc3)n2-c2ccccc2)cc1OC subject_of_test="T-47D breast" assigned_category=N
compound=CNC(=O)c1cc(Oc2ccc3nc(N[C@@H]4CCCC[C@H]4O)sc3c2)ccn1 subject_of_test="T-47D breast" assigned_category=N
